B1: glmS ribozyme (parent)
chain: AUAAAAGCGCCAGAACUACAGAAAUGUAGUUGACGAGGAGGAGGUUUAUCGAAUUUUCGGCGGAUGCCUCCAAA

variants of: B1; assay: self-cleavage kobs at 640 uM GlcN6P; higher = faster cleavage; RNA array; details: with glucosamine-6-phosphate
Fewer inactive variants are shown than the library holds.
recordedMetric: self-cleavage kobs at 640 uM GlcN6P

sequenceChange: U30C G35U G40U A42G U47C
measurement: < 1e-05 s⁻¹

sequenceChange: A6G A36G
measurement: < 1e-05 s⁻¹

sequenceChange: G9C G29A G41A
measurement: < 1e-05 s⁻¹
